target: cAMP and cAMP-inhibited cGMP 3',5'-cyclic phosphodiesterase 10A (Homo sapiens, UniProt Q9Y233)
Sequence (Q9Y233 whole entry): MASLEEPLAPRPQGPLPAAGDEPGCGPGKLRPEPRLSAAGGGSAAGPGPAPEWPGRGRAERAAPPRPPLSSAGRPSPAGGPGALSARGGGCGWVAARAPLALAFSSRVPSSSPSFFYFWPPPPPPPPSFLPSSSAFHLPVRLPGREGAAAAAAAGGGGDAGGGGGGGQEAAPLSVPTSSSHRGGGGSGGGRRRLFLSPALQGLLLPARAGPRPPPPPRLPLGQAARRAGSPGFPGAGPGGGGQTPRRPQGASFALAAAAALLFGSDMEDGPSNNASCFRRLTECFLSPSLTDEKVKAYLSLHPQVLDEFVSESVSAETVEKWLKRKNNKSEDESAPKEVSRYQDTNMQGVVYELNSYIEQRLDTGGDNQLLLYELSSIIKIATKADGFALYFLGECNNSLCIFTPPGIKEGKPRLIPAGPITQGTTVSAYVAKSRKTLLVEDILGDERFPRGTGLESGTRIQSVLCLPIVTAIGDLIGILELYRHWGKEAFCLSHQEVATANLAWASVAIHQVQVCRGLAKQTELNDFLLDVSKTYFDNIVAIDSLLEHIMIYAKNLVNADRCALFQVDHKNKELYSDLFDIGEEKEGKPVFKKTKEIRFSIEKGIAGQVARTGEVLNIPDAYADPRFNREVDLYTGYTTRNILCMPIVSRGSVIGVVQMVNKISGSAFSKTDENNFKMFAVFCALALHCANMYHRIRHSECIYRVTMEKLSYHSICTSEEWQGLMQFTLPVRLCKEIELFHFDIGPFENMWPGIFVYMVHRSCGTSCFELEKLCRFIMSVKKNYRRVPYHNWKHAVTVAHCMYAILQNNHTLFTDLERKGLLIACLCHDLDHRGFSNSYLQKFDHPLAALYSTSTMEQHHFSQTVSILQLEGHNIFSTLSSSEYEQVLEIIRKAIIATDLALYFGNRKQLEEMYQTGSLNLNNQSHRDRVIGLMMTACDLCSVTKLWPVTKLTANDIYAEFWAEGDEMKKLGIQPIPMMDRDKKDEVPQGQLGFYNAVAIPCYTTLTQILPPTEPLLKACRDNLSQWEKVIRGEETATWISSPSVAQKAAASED
experimentDescription: Inhibition of PDE10A
assayReadout: log10(IC50) (log10 of the value in nM)
# log10 transformed; quantity=IC50; unit=nM

What does the data say about its log10(IC50)? Entry: `Cc1ncc(C)n2nc(CCc3c[nH]c(-c4cccs4)n3)nc12`
-0.47

Could you do the same for `Cc1nc2ccccc2nc1OCc1nc(OC2CCOCC2)cc(N2CCCC2)n1` , please?
-0.21

Field entry: `COc1ccc(-c2cc(N3CCn4ccnc4C3)nc(/C=C/c3nc(N(C)C)c4ccccc4n3)n2)cc1OC`
-0.36

Now the same for COC(=O)c1ccc(CN2CC(c3ccc(OC)c4oc5ccccc5c34)CC2=O)c(F)c1 (racemic)
1.59

What would you report for `Cc1nc2ccccc2nc1CCc1nc(C(=O)NC[C@@H]2CCCO2)cc(N2CCCC2)n1` ?
0.52

Now try CN1CC(c2cccnc2Oc2ccc(C(=O)c3nc4ccccc4[nH]3)cc2)CC1=O (centres undefined) .
-0.68
